- Target Or System: UniProtKB O60674
- Sequence (O60674 whole entry, species assumed): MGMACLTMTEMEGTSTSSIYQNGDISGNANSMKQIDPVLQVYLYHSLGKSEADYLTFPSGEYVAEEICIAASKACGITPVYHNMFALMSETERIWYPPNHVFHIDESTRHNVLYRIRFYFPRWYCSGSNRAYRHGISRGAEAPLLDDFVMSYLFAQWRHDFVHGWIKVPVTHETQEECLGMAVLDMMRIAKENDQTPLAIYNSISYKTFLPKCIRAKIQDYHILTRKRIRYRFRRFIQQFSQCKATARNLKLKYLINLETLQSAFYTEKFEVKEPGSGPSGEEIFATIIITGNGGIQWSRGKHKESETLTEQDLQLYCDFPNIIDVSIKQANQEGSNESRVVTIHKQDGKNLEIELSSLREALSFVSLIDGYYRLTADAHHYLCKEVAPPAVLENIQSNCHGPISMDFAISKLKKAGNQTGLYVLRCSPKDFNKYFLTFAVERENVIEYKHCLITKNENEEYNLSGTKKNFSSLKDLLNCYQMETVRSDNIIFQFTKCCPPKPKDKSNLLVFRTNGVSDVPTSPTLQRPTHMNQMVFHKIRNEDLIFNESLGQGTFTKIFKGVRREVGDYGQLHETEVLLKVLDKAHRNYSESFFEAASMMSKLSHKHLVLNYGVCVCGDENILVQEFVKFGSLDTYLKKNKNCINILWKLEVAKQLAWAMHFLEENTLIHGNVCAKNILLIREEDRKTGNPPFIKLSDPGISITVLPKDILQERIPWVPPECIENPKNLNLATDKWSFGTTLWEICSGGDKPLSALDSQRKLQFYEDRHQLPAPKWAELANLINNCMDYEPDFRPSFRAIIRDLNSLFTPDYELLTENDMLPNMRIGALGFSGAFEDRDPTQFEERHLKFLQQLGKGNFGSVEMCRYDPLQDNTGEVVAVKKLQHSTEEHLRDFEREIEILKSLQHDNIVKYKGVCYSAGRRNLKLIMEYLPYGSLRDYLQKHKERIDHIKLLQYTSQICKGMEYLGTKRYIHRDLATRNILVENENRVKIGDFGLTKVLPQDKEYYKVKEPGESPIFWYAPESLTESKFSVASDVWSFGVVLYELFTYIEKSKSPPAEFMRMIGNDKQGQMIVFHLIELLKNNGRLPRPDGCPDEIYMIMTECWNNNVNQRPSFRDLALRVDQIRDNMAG
- Assay Method Text: Kinase profiling JAK2
- Assay type: biochemical
- Study Conditions: 100 micromolar inhibitor concentration; 100 is no change
Kind request: treat 70 as inclusive, so residual kinase activity, JAK2 at 70 or higher is TRUE, anything lower is FALSE.

| Structure | Answer Label |
| --- | --- |
| O=C(Nc1nc2ccc(O)cc2s1)c1ccncc1 | FALSE |
| COc1ccc2sc(NC(=O)c3ccccc3)nc2c1 | TRUE |
| CC(=O)Nc1nc2ccccc2s1 | FALSE |

Query string: Check the entry O=C(Nc1nc2cc(O)ccc2s1)c1ccccc1 : does residual kinase activity, JAK2 equal or exceed 70?
Result string: FALSE

Query string: Check the entry O=C(Nc1nc2ccc(C(F)(F)F)cc2s1)c1ccccc1 : does residual kinase activity, JAK2 equal or exceed 70?
Result string: TRUE

Query string: Check the entry O=C(Nc1nc2cc(O)ccc2s1)c1ccccn1 : does residual kinase activity, JAK2 equal or exceed 70?
Result string: TRUE

Query string: Check the entry COC(=O)c1cccc(C(=O)Nc2nc3ccc(F)cc3s2)c1 : does residual kinase activity, JAK2 equal or exceed 70?
Result string: TRUE

Query string: Check the entry COC(=O)c1cccc(C(=O)Nc2nc3cc(OC)ccc3s2)c1 : does residual kinase activity, JAK2 equal or exceed 70?
Result string: TRUE

Query string: Check the entry CC(=O)Nc1nc2cc(C)ccc2s1 : does residual kinase activity, JAK2 equal or exceed 70?
Result string: FALSE

###

- Target Or System: TSSK1 (Homo sapiens)
- Sequence (Q9BXA7 1-367): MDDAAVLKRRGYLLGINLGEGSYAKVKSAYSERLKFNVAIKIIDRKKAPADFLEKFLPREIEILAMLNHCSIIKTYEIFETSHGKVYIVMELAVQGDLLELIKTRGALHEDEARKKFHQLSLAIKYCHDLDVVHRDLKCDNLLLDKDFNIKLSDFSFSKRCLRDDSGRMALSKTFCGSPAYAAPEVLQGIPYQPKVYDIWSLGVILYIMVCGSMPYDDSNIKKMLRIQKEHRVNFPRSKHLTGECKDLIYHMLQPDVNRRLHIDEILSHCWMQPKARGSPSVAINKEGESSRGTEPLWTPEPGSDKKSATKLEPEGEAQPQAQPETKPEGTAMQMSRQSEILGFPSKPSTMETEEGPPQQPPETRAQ
- Assay Method Text: Kinase profiling TSSK1
- Assay type: biochemical
- Study Conditions: 100 micromolar inhibitor concentration; 100 is no change; read-out: residual kinase activity, TSSK1
Listing: remaining activity at 100 µM of selected molecules
Respond with the figure and its unit, in that order.

Some entries whose results are on file:
| Structure | Measurement |
| --- | --- |
| COc1ccc2sc(NC(C)=O)nc2c1 | 75% |
| CC(=O)Nc1nc2ccc(C(F)(F)F)cc2s1 | 90% |
| CC(=O)Nc1nc2ccc(O)cc2s1 | 67% |
| CC(=O)Nc1nc2ccc(C#N)cc2s1 | 55% |
| CC(=O)Nc1nc2cc(C(F)(F)F)ccc2s1 | 71% |

Query string: # get_value(readout='remaining activity at 100 µM', item= CC(=O)Nc1nc2cc(F)ccc2s1 )
Result string: 84%

###

- Tested on: PHK
- Assay Method Text: Kinase profiling PHK
- Assay type: biochemical
- Study Conditions: 100 micromolar inhibitor concentration; 100 is no change
Kind request: treat 50 as inclusive, so residual kinase activity, PHK at 50 or higher is Criterion met, anything lower is Criterion not met.

Past entries and their recorded results:
| Structure | Answer Label |
| --- | --- |
| CC(=O)Nc1nc2ccc(C#N)cc2s1 | Criterion met |
| CC(=O)Nc1nc2ccccc2s1 | Criterion met |
| CC(=O)Nc1nc2ccc(C(F)(F)F)cc2s1 | Criterion met |
| CC(=O)Nc1nc2cc(C(F)(F)F)ccc2s1 | Criterion met |
| CC(=O)Nc1nc2cc(F)ccc2s1 | Criterion met |
| O=C(Nc1nc2cc(O)ccc2s1)c1cccnc1 | Criterion met |
| O=C(Nc1nc2cc(O)ccc2s1)c1ccncc1 | Criterion met |
| O=C(Nc1nc2ccc(O)cc2s1)c1cccnc1 | Criterion not met |
| O=C(Nc1nc2ccc(O)cc2s1)c1ccncc1 | Criterion met |
| O=C(Nc1nc2cc(O)ccc2s1)c1ccccn1 | Criterion not met |

Query string: Check the entry O=C(Nc1nc2ccc(O)cc2s1)c1ccccn1 : does residual kinase activity, PHK equal or exceed 50?
Result string: Criterion not met

Query string: Check the entry O=C(Nc1nc2ccc(O)cc2s1)c1ccccc1 : does residual kinase activity, PHK equal or exceed 50?
Result string: Criterion not met

Query string: Check the entry CC(=O)Nc1nc2cc(C)ccc2s1 : does residual kinase activity, PHK equal or exceed 50?
Result string: Criterion met

Query string: Check the entry COc1ccc2sc(NC(C)=O)nc2c1 : does residual kinase activity, PHK equal or exceed 50?
Result string: Criterion met

Query string: Check the entry CC(=O)Nc1nc2ccc(O)cc2s1 : does residual kinase activity, PHK equal or exceed 50?
Result string: Criterion not met

###

- Target Or System: MST4 (Homo sapiens)
- Sequence (Q9P289 whole entry, species assumed): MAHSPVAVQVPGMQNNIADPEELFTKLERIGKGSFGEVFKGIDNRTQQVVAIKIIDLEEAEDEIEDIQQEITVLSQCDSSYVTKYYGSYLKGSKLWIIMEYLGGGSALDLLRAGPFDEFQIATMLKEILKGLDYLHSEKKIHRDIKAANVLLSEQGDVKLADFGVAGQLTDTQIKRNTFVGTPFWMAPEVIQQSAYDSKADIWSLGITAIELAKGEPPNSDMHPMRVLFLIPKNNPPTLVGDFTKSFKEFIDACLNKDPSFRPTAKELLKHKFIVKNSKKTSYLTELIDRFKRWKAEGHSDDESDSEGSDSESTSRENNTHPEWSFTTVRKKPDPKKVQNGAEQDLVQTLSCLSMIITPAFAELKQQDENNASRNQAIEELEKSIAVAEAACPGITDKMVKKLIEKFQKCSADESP
- Assay Method Text: Kinase profiling MST4
- Type: biochemical
- Study Conditions: 100 micromolar inhibitor concentration; 100 is no change
Kind request: treat 80 as inclusive, so residual kinase activity, MST4 at 80 or higher is 1, anything lower is 0.

| Structure | Target Or System | Answer Label |
| --- | --- | --- |
| O=C(Nc1nc2ccc(O)cc2s1)c1ccccc1 | MST4 (Homo sapiens) | 0 |
| CC(=O)Nc1nc2cc(C)ccc2s1 | MST4 (Homo sapiens) | 1 |
| O=C(Nc1nc2cc(O)ccc2s1)c1ccncc1 | MST4 (Homo sapiens) | 1 |
| O=C(Nc1nc2cc(O)ccc2s1)c1ccccn1 | MST4 (Homo sapiens) | 0 |
| CC(=O)Nc1nc2ccccc2s1 | MST4 (Homo sapiens) | 1 |

Next molecule, please.
Query string: Check the entry O=C(Nc1nc2cc(O)ccc2s1)c1cccnc1 : does residual kinase activity, MST4 equal or exceed 80?
Result string: 1

###

- Target Or System: MNK1 (Homo sapiens)
- Sequence (Q9BUB5 whole entry, species assumed): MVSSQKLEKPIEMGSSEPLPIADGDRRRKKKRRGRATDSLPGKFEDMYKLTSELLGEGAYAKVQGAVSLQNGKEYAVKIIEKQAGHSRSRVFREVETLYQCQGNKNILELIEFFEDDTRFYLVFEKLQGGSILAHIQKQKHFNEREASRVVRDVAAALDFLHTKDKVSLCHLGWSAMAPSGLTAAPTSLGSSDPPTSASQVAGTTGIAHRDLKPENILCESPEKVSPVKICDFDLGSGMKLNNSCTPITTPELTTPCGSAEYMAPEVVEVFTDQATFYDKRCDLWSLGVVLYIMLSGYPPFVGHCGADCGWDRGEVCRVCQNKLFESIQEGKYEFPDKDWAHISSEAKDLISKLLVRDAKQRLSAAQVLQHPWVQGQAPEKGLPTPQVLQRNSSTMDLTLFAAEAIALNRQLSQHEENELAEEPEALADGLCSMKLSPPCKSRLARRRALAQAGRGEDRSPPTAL
- Assay Method Text: Kinase profiling MNK1
- Format: biochemical
- Study Conditions: 100 micromolar inhibitor concentration; 100 is no change
Kind request: treat 20 as inclusive, so residual kinase activity, MNK1 at 20 or higher is True, anything lower is False.

| Compound | Answer Label |
| --- | --- |
| O=C(Nc1nc2cc(O)ccc2s1)c1ccncc1 [Compound 03-11] | True |

Query string: Check the entry CC(=O)Nc1nc2ccccc2s1 [Compound 03-32] : does residual kinase activity, MNK1 equal or exceed 20?
Result string: True

Query string: Check the entry O=C(Nc1nc2cc(O)ccc2s1)c1ccccn1 [Compound 03-13] : does residual kinase activity, MNK1 equal or exceed 20?
Result string: True

Query string: Check the entry O=C(Nc1nc2ccc(O)cc2s1)c1ccccc1 [Compound 03-60] : does residual kinase activity, MNK1 equal or exceed 20?
Result string: False

Query string: Check the entry O=C(Nc1nc2ccc(O)cc2s1)c1cccnc1 [Compound 08-44] : does residual kinase activity, MNK1 equal or exceed 20?
Result string: False

###

- Target Or System: UniProt Q7KZI7
- Sequence (Q7KZI7 whole entry, species assumed): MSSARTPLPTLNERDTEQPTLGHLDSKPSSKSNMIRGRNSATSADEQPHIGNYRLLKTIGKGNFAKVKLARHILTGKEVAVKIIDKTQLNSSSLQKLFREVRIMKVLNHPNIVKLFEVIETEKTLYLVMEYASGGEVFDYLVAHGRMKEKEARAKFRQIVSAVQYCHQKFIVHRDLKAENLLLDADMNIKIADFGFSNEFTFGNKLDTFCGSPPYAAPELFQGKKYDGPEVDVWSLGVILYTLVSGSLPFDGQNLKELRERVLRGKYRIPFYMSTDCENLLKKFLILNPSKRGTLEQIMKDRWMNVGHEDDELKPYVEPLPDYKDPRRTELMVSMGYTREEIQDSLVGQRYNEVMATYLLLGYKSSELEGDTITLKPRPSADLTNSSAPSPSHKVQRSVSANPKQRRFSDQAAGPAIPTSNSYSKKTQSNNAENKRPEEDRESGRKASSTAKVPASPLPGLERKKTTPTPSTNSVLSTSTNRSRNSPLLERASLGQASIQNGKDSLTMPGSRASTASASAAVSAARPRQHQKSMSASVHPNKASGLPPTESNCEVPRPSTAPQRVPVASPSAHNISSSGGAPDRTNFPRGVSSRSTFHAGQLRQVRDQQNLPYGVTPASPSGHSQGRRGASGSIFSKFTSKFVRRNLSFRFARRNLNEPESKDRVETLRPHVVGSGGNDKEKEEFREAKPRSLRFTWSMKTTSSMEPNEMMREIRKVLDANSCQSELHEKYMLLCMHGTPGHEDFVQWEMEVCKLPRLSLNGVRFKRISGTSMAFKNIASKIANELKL
- Assay Method Text: Kinase profiling MARK2
- Assay type: biochemical
- Study Conditions: 100 micromolar inhibitor concentration; 100 is no change
- Excerpt: Any value less that 25 is considered to be highly significant inhibition.
Metric: residual kinase activity, MARK2
Lab note: record just the number, no unit beside it.

Some entries whose results are on file:
| Molecule | Metric | Measurement |
| --- | --- | --- |
| O=C(Nc1nc2cc(O)ccc2s1)c1cccnc1 [Compound 03-33] | residual kinase activity, MARK2 | 102 |
| O=C(Nc1nc2ccc(O)cc2s1)c1ccccn1 [Compound 03-12] | residual kinase activity, MARK2 | 90 |

Query string: # get_value(readout='residual kinase activity, MARK2', item= O=C(Nc1nc2ccc(O)cc2s1)c1cccnc1 [Compound 08-44] )
Result string: 74

Query string: # get_value(readout='residual kinase activity, MARK2', item= CC(=O)Nc1nc2ccccc2s1 [Compound 03-32] )
Result string: 88

###

- Target Or System: JNK1 (Homo sapiens, UniProt P45983)
- Sequence (P45983 whole entry, species assumed): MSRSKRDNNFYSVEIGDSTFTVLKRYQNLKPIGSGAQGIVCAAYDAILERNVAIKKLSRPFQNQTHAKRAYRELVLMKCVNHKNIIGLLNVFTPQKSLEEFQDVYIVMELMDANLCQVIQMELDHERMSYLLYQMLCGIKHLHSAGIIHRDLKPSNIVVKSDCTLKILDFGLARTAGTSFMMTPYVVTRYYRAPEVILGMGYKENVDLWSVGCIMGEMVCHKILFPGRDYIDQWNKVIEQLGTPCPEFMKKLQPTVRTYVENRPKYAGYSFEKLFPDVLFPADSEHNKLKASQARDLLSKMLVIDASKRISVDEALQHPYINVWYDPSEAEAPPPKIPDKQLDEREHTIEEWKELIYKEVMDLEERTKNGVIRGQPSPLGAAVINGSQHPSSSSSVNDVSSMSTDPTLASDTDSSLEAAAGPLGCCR
- Assay Method Text: Kinase profiling JNK1
- Type: biochemical
- Study Conditions: 100 micromolar inhibitor concentration; 100 is no change; read-out: residual kinase activity, JNK1
Metric: remaining activity at 100 µM (%)
Your answer is read as %, so omit the unit and give the number.

| Compound | Units Text | Measurement |
| --- | --- | --- |
| COc1ccc2sc(NC(C)=O)nc2c1 [Compound 03-21] | % | 97 |

Query string: # get_value(readout='remaining activity at 100 µM', item= CC(=O)Nc1nc2cc(C(F)(F)F)ccc2s1 [Compound 03-73] )
Result string: 120

Query string: # get_value(readout='remaining activity at 100 µM', item= CC(=O)Nc1nc2ccc([N+](=O)[O-])cc2s1 [Compound 13-10] )
Result string: 82

These measurements were taken from patent US10231954B2.
